Molecular target: Aβ42 (Homo sapiens, UniProt P05067)
Sequence (P05067 672-713): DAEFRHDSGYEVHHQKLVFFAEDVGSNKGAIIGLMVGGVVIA
Experiment: Th-T (thioflavin-T) assay of Aβ42 aggregation
Assay type: biochemical
Settings: concentration 20, unit not given; time-course reading M140
Measurement label: Th-T fluorescence of Aβ42 with compound, mean of three wells (Fig. 7a source data)
One number for each entry.

C=C1CC[C@@H]2[C@](C)(CC[C@H]3O[C@H](C=C(C)C)C[C@@]23C)[C@@H]1Cc1c(OC)oc(CO)c(C)c1=O [Compound 20] : 3.025
C=C1CCC2C(C)(CCC=C(C)C)C(O)CCC2(C)C1Cc1c(OC)oc(C)c(C(=O)OC)c1=O (centres unmarked) [Compound 14] : 1.578
C=C1CCC2C(C)(CCC=C(C)C)C(O)CCC2(C)C1Cc1c(OC)oc(CO)c(C)c1=O (centres unmarked) [Compound 12] : 2.233
C=C1CCC2C(C)(CCC=C(C)C)C(O)CCC2(C)C1Cc1c(OC)oc(CO)c(C(=O)OC)c1=O (centres unmarked) [Compound 13] : 1.019

Let us examine a further case.
Asked: Give its Th-T fluorescence of Aβ42 with compound, mean of three wells (Fig. 7a source data) value. Item: C=C1CC[C@@H]2[C@](C)(CC[C@H]3O[C@H](C=C(C)C)C[C@@]23C)[C@@H]1Cc1c(OC)oc(CO)c(C(=O)OC)c1=O [Compound 21]
Given back: 0.9636
